experimental details: protein stability index of a GFP-peptide fusion (GPS, HEK-293T) (PSI 1-6); higher = more stable;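 further: 24-mer peptide tiles fused after GFP, lentivirally expressed, FACS-sorted into six equal bins by GFP/DsRed ratio, decoded by Illumina sequencing, PSI is the read-weighted mean bin number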
applied conditions: treatment: DMSO; c terminus: a fixed tail appended
Lab note: anything with protein stability index at or over 3 counts as Satisfied; the rest go in Not satisfied.

Query: Given RRGSTPLHMAVERRVRGVVELLLA [RIPK4] , state whether its protein stability index is at least 3.
Result: Not satisfied

Query: Repeat with VEEILDRENKRMADSLASKVTRLK [BET1L]
Result: Satisfied

Query: Repeat with FGAAGVNRLSIGLQSLDDTELRLL [RSAD1]
Result: Not satisfied

Query: Repeat with AAFQTILTEIYRIVSQKQMSDRRE [RAB11A]
Result: Not satisfied

Query: Repeat with HNIVFGDYTWTEFDEPFLTRNVQS [TRIP13]
Result: Not satisfied

Query: Repeat with ELAPDFVGDILWEHLEILQKEDVK [ETS1]
Result: Satisfied

Query: Repeat with SEDRRSRHCPYLDTINRSVLDFDF [USP39]
Result: Satisfied

Query: Repeat with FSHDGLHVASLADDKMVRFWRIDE [WSB1]
Result: Not satisfied

Query: Repeat with TLLSVLKREAGNLTKATAPDQKSS [SSNA1]
Result: Not satisfied

Query: Repeat with VIDLAESLVADNCVTLVWRMPDED [FSD1]
Result: Not satisfied

Query: Repeat with VHIETFTTRHGEVGSALHRESFTS [C10orf62]
Result: Not satisfied

Query: Repeat with GVSSVDSAFSSRGSLSLSFEREPS [RIPK4]
Result: Satisfied
